biological target: PRMT5-MEP50 (Homo sapiens); assay: PRMT5 assay (3H-SAM flashplate); conditions: Table 4; PRMT5 biochemical assay
pIC50: −log10 of the molar value.
Readout Kind: pIC50

Record excerpt, results attached:
Molecule	Target Or System	pIC50
CN1CCC(N(CCCC#N)C(=O)[C@H]2O[C@@H](n3cc(-c4ccn(C)n4)c4c(N)ncnc43)[C@H](O)[C@@H]2O)CC1	PRMT5-MEP50 (Homo sapiens)	7.00 to 8.00
C[C@H]1C[C@@H](NC(=O)[C@H]2O[C@@H](n3cc(-c4ccn(C)n4)c4c(N)ncnc43)[C@H](O)[C@@H]2O)CCN1C	PRMT5-MEP50 (Homo sapiens)	6.00 to 7.00
C[C@H]1C[C@H](NC(=O)[C@H]2O[C@@H](n3cc(-c4ccn(C)n4)c4c(N)ncnc43)[C@H](O)[C@@H]2O)CCN1	PRMT5-MEP50 (Homo sapiens)	≤ 6.00
Cn1ccc(-c2cn([C@@H]3O[C@H](C(=O)NC4CCOCC4)[C@@H](O)[C@H]3O)c3ncnc(N)c23)n1	PRMT5-MEP50 (Homo sapiens)	6.00 to 7.00
CN1CCC(N(CCCNc2ccccn2)C(=O)[C@H]2O[C@@H](n3cc(-c4ccn(C)n4)c4c(N)ncnc43)[C@H](O)[C@@H]2O)CC1	PRMT5-MEP50 (Homo sapiens)	7.00 to 8.00

// next item, pIC50 requested
Hello, I am looking for reported pIC50 with PRMT5-MEP50 (Homo sapiens) for "Cn1ccc(-c2cn([C@@H]3O[C@H](C(=O)NC4CCC5(CC4)CNC5)[C@@H](O)[C@H]3O)c3ncnc(N)c23)n1" . Could you help?
6.00 to 7.00

* * *

Each entry below carries its recorded IC50.
biological target: METTL3/METTL14 (Homo sapiens, UniProt Q86U44); experiment: METTL3-14 standard enzyme assay (3H-SAM flashplate); conditions: Table 4; METTL3 biochemical assay
Sequence (Q86U44 whole entry, species assumed): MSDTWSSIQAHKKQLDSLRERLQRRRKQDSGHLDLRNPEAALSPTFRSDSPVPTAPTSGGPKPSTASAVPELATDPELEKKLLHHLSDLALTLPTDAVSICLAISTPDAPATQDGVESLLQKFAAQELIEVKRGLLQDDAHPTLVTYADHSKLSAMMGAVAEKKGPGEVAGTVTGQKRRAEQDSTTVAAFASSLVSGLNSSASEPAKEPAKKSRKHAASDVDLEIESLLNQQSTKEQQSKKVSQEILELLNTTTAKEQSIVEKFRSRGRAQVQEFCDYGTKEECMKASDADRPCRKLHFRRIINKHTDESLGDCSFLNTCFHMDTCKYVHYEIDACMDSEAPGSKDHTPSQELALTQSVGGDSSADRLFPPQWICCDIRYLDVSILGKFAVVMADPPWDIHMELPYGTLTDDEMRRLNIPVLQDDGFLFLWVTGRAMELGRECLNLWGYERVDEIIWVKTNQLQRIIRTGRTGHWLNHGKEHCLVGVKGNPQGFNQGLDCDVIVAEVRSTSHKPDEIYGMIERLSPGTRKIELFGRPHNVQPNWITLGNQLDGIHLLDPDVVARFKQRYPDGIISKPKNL
Sequence (Q9HCE5 whole entry partner, species assumed): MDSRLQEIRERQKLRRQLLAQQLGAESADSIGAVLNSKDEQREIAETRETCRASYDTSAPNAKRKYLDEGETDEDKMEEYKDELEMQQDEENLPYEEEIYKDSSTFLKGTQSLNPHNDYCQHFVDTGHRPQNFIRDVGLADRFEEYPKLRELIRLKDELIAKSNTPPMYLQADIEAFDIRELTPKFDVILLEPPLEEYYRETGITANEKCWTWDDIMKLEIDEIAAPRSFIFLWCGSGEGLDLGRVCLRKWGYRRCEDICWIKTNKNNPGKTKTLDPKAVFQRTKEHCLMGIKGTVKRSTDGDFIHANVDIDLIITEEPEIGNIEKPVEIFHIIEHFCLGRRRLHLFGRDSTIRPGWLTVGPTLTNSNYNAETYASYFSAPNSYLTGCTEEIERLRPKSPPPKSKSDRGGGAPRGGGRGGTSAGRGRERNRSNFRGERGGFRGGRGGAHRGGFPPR

Record excerpt, results attached:
Molecule	IC50
Cn1ccc(-c2cn([C@@H]3O[C@H](C(=O)N[C@@H](CO)c4ccccc4)[C@@H](O)[C@H]3O)c3ncnc(N)c23)n1	≥ 1000 nM
Cn1ccc(-c2cn([C@@H]3O[C@H](C(=O)NCCC4CCCCC4)[C@@H](O)[C@H]3O)c3ncnc(N)c23)n1	100 to 1000 nM
Cn1ccc(-c2cn([C@@H]3O[C@H](C(=O)Nc4ccc(OC(F)F)cc4)[C@@H](O)[C@H]3O)c3ncnc(N)c23)n1	100 to 1000 nM

// next item, IC50 requested
Fill blank: measured IC50 of the compound "Cn1ccc(-c2cn([C@@H]3O[C@H](C(=O)N[C@H]4CCc5nc(N)sc5C4)[C@@H](O)[C@H]3O)c3ncnc(N)c23)n1" is ____.
100 to 1000 nM

* * *

Each entry below carries its recorded IC50.
molecular target: METTL3/METTL14 (Homo sapiens, UniProt Q86U44); test: METTL3-14 standard enzyme assay (3H-SAM flashplate); conditions: Table 4; METTL3 biochemical assay

Record excerpt, results attached:
Compound	Readout Kind	Recorded Measurement
Cn1ccc(-c2cn([C@@H]3O[C@H](C(=O)NC4CCc5cnc(N)nc5C4)[C@@H](O)[C@H]3O)c3ncnc(N)c23)n1 (some centres unmarked) [Compound I-188]	IC50	0.1 to 1 µM
CNc1ccc2ccc(NC(=O)[C@H]3O[C@@H](n4ccc5c(N)ncnc54)[C@@H](F)[C@@H]3O)cc2n1 [Compound I-62]	IC50	0.1 to 1 µM

Hello, I am looking for reported IC50 with METTL3/METTL14 (Homo sapiens, UniProt Q86U44) for CN1CCC(NC(=O)[C@H]2O[C@@H](n3cc(-c4ccn(C)n4)c4c(N)ncnc43)[C@H](O)[C@@H]2O)CC1=O (some centres unmarked) [Compound I-186] . Could you help?
≥ 1 µM

Now try CN1CCC(N(CCCC(=O)O)C(=O)[C@H]2O[C@@H](n3cc(-c4ccn(C)n4)c4c(N)ncnc43)[C@H](O)[C@@H]2O)CC1 [Compound I-58] .
≥ 1 µM

Now try Cn1ccc(-c2cn([C@@H]3O[C@H](C(=O)NC4CCN5CCCC5C4)[C@@H](O)[C@H]3O)c3ncnc(N)c23)n1 (some centres unmarked) [Compound I-206] .
0.1 to 1 µM

Now try CN1CCC(NC(=O)[C@H]2C[C@@H](n3cc(-c4ccn(C)n4)c4c(N)ncnc43)C[C@@H]2O)CC1 [Compound I-55] .
≥ 1 µM

Now try Cn1ccc(-c2cn([C@@H]3O[C@H](C(=O)N4CCCC(NS(C)(=O)=O)C4)[C@@H](O)[C@H]3O)c3ncnc(N)c23)n1 (stereo in doubt) [Compound I-185] .
≥ 1 µM

Now try Cc1cc(CNC(=O)[C@H]2O[C@@H](n3cc(-c4ccn(C)n4)c4c(N)ncnc43)[C@H](O)[C@@H]2O)ccc1F [Compound I-77] .
≥ 1 µM

* * *

biological target: METTL3/METTL14 (Homo sapiens, UniProt Q86U44); assay: METTL3-14 standard enzyme assay (3H-SAM flashplate); settings: Table 4; METTL3 biochemical assay
Readout Kind: IC50

Compound	IC50
Cc1cccnc1NC(=O)[C@H]1O[C@@H](n2cc(-c3ccn(C)n3)c3c(N)ncnc32)[C@H](O)[C@@H]1O [Compound I-93]	≥ 1 µM
CN1CCC(NC(=O)[C@H]2O[C@@H](n3cc(-c4ccn(C)n4)c4c(N)ncnc43)[C@@H](F)[C@@H]2O)CC1 [Compound I-60]	0.1 to 1 µM
Cn1ccc(-c2cn([C@@H]3O[C@H](C(=O)NC4CCN(C(=O)OCc5ccccc5)CC4)[C@@H](O)[C@H]3O)c3ncnc(N)c23)n1 [Compound I-225]	0.1 to 1 µM
Cn1ccc(-c2cn([C@@H]3O[C@H](C(=O)N[C@H]4CC[C@@](C)(O)CC4)[C@@H](O)[C@H]3O)c3ncnc(N)c23)n1 [Compound I-209]	0.1 to 1 µM
COc1ccccc1CNC(=O)[C@H]1O[C@@H](n2cc(-c3ccn(C)n3)c3c(N)ncnc32)[C@H](O)[C@@H]1O [Compound I-97]	0.1 to 1 µM
Cc1cc(C#N)ccc1NC(=O)[C@H]1O[C@@H](n2cc(-c3ccn(C)n3)c3c(N)ncnc32)[C@H](O)[C@@H]1O [Compound I-113]	0.1 to 1 µM
Cn1ccc(-c2cn([C@@H]3O[C@H](C(=O)NCc4ccc5ccccc5c4)[C@@H](O)[C@H]3O)c3ncnc(N)c23)n1 [Compound I-131]	0.1 to 1 µM
Cc1nsc(NC(=O)[C@H]2O[C@@H](n3cc(-c4ccn(C)n4)c4c(N)ncnc43)[C@H](O)[C@@H]2O)n1 [Compound I-83]	≥ 1 µM
Cn1ccc(-c2cn([C@@H]3O[C@H](C(=O)NCCCN4CCCC4)[C@@H](O)[C@H]3O)c3ncnc(N)c23)n1 [Compound I-181]	≥ 1 µM
CN1CCC[C@H](NC(=O)[C@H]2O[C@@H](n3cc(-c4ccn(C)n4)c4c(N)ncnc43)[C@H](O)[C@@H]2O)C1 [Compound I-230]	≥ 1 µM

Fill blank: measured IC50 of the compound Cn1ccc(-c2cn([C@@H]3O[C@H](C(=O)NC4CCC(O)CC4)[C@@H](O)[C@H]3O)c3ncnc(N)c23)n1 (stereo partly drawn) [Compound I-103] is ____.
0.1 to 1 µM

Now try CCN(CC)C(=O)[C@H]1O[C@@H](n2cc(-c3ccn(C)n3)c3c(N)ncnc32)[C@H](O)[C@@H]1O [Compound I-150] .
≥ 1 µM

Now try Cn1ccc(-c2cn([C@@H]3O[C@H](C(=O)N[C@H]4CCC(=O)NC4)[C@@H](O)[C@H]3O)c3ncnc(N)c23)n1 [Compound I-179] .
≥ 1 µM

Now try Cn1cc(NC(=O)[C@H]2O[C@@H](n3cc(-c4ccn(C)n4)c4c(N)ncnc43)[C@H](O)[C@@H]2O)cn1 [Compound I-104] .
0.1 to 1 µM

Now try CC(C)OCCNC(=O)[C@H]1O[C@@H](n2cc(-c3ccn(C)n3)c3c(N)ncnc32)[C@H](O)[C@@H]1O [Compound I-73] .
≥ 1 µM

Now try CN1CCC(NC(=O)[C@H]2C[C@@H](n3cc(-c4ccn(C)n4)c4c(N)ncnc43)[C@H](O)[C@@H]2O)CC1 [Compound I-44] .
0.1 to 1 µM

Now try CN1CCC(NC(=O)[C@H]2O[C@@H](n3cc(C4CCCC4)c4c(N)ncnc43)[C@H](O)[C@@H]2O)CC1 [Compound I-56] .
0.1 to 1 µM

Now try Cn1ccc(-c2cn([C@@H]3O[C@H](C(=O)Nc4cc(Cl)cc(Cl)c4)[C@@H](O)[C@H]3O)c3ncnc(N)c23)n1 [Compound I-67] .
≥ 1 µM

* * *

Biological target: PRMT5-MEP50 (Homo sapiens, UniProt O14744)
Sequence (O14744 whole entry): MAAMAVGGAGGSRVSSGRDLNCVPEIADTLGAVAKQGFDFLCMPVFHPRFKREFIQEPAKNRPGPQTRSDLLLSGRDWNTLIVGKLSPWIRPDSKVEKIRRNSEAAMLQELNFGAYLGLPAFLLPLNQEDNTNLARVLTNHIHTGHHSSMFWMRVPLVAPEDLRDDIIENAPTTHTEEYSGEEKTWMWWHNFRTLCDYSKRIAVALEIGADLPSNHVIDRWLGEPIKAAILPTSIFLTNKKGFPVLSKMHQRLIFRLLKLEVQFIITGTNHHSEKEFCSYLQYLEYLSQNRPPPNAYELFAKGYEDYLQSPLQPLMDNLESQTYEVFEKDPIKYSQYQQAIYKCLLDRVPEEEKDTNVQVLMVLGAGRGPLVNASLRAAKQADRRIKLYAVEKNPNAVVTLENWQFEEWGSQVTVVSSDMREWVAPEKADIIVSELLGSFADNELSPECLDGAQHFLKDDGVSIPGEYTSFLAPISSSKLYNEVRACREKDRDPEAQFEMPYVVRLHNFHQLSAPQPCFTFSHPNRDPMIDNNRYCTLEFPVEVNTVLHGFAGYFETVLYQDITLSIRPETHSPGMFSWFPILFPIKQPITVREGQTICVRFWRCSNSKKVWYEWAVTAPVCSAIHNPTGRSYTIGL
Sequence (Q9BQA1 whole entry partner): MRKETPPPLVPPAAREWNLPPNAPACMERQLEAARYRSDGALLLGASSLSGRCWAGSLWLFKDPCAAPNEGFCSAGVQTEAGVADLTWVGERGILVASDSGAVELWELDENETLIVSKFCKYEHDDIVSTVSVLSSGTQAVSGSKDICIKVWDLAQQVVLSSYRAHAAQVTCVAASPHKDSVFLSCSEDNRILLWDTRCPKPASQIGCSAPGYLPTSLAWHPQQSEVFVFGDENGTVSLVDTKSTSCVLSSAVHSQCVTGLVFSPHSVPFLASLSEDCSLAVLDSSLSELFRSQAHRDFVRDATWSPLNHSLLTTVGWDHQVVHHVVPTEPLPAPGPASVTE
Experiment: PRMT5 assay (3H-SAM flashplate)
Details: Table 4; PRMT5 biochemical assay
Procedure: Assays were performed in a 25 μl-volume in 384-well V-bottom polypropylene microplates (Greiner Bio-One, cat. No. 781280) at ambient temperature. Optimized 1× assay buffer was 20 mM Tris-HCl pH 8.0, 1 mM DTT, 0.01% Tween, 0.01%. […] Following two washing cycles with 0.1% Tween-20, the plates were sealed and read on a TopCount (PerkinElmer, Waltham, MA) plate-based scintillation counter. […]
Readout Kind: IC50

Molecule	IC50
COCCNc1ccnc(NC(=O)[C@H]2O[C@@H](n3cc(-c4ccn(C)n4)c4c(N)ncnc43)[C@H](O)[C@@H]2O)c1	100 to 1000 nM
CC(=O)N1CCC(CNC(=O)[C@H]2O[C@@H](n3cc(-c4ccn(C)n4)c4c(N)ncnc43)[C@H](O)[C@@H]2O)CC1	≥ 1000 nM

// next item, IC50 requested
Fill blank: measured IC50 of the compound "Cn1ccc(-c2cn([C@@H]3O[C@H](C(=O)N4CCc5[nH]cnc5C4)[C@@H](O)[C@H]3O)c3ncnc(N)c23)n1" is ____.
10 to 100 nM
